molecular target: human δ opioid receptor (human, UniProt P41143 1-372); assay: cell-based or functional assay
Sequence (P41143 whole entry, stated change not applied): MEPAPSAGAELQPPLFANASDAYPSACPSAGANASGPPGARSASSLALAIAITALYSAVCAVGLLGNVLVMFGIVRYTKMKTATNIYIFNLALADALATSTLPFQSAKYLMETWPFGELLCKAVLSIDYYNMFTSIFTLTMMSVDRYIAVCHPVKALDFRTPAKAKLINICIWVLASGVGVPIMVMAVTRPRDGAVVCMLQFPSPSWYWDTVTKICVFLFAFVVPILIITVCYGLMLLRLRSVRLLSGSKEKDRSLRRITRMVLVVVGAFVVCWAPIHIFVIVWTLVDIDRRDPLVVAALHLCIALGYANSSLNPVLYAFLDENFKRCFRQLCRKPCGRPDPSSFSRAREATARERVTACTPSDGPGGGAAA
Bridge positions count the residues as written; N and C are the ends. Square brackets hold non-standard residues; d marks the D form. Ends that are not written are not given here. * marks the point of attachment. NHBn(CF3)2 = C-terminal amide NH-Bn(CF3)2, a benzyl group carrying two CF3; Glc = O-glucosyl on Ser side chain (Ser(OGlu)/Ser(OGlc)); NH(3,5-(CF3)2-benzyl) = FC(F)(F)c1cc(CN*)cc(C(F)(F)F)c1; OBzl(3,5-(CF3)2) = FC(F)(F)c1cc(CO*)cc(C(F)(F)F)c1; NH‑Bn(CF3)2 = C-terminal Bn(CF3)2 amide; OBn(CF3)2 = C-terminal Bn(CF3)2 ester; Nle = CCCC[C@H](N)C(=O)O; Aib = CC(C)(N)C(=O)O; NHBn = c1ccc(CN*)cc1; OBn = c1ccc(CO*)cc1
For each record, write down the corresponding GTP binding hDOR Emax.
Dear colleague, please return just the value in %, with no unit written.

Item Y[dA]GFMPLW-NHBn [TyrDAlaGlyPheMetProLeuTrpNHBn (TY025)] : provide GTP binding hDOR Emax
51.7

Please list GTP binding hDOR Emax recorded for the binder YAGFXPLW (D-Ala at 2; Nle at 5 (X); C-terminal NH-Bn(CF3)2 amide) [TyrDAlaGlyPheNleProLeuTrpNHBn(CF3)2 (TY045)]
125

Given the binder Y[dA]GFMPLW-OBn [TyrDAlaGlyPheMetProLeuTrpOBn (TY029)] , write its reported GTP binding hDOR Emax.
98

Answer with reported GTP binding hDOR Emax of Y[dA]GFM[Aib]LW-{OBn(CF3)2} [TyrDAlaGlyPheMetAibLeuTrpOBn(CF3)2 (TY022)]
28

Using known records, supply GTP binding hDOR Emax for Y[dA]GFMPLW-OH [TyrDAlaGlyPheMetProLeuTrpOH (TY043)]
62

Specify measured GTP binding hDOR Emax for Y[dA]GFMPLW-{NH(3,5-(CF3)2-benzyl)} [TyrDAlaGlyPheMetProLeuTrpNHBn(CF3)2 (TY027)] .
58

Answer with the recorded GTP binding hDOR Emax of YXGFXPLW (D-Pen (D-penicillamine) at 2 (X); Pen (L-penicillamine) at 5 (X); disulfide 2-5 (cyclic); C-terminal NH-Bn(CF3)2 amide) [Tyr[DPenGlyPhePen]ProLeuTrpNHBn(CF3)2 (TY046)] only.
15

Note down GTP binding hDOR Emax recorded for Y[dA]GFFPLW-{OBzl(3,5-(CF3)2)} [TyrDAlaGlyPhePheProLeuTrpOBn(CF3)2 (TY003)]
39

Indicate its recorded GTP binding hDOR Emax; the binder in question is Y[dA]GFFPLW-{NHBn(CF3)2} [TyrDAlaGlyPhePheProLeuTrpNHBn(CF3)2 (TY015)]
142

Return GTP binding hDOR Emax (reported value) for this binder: YAGFXPLW (D-Ala at 2; Nle (norleucine) at 5 (X); C-terminal O-3,5-Bn(CF3)2 ester) [TyrDAlaGlyPheNleProLeuTrpOBn(CF3)2 (TY018)]
131

Read off the recorded GTP binding hDOR Emax for Y[dA]GF[Nle]PS(Glc)W-{NH‑Bn(CF3)2} [TyrDAlaGlyPheNleProSer(OGlu)TrpNHBn(CF3)2 (TY041)]
62

Fill in reported GTP binding hDOR Emax for this entry: Y[dC]GFCPLW-{NH(3,5-(CF3)2-benzyl)} (disulfide 2-5, also called [D-Cys2, Cys5]) [Tyr[DCysGlyPheCys]ProLeuTrpNHBn(CF3)2 (TY039)]
37

Using the record for Y[dC]GF[Nle]PCW-{NH(3,5-(CF3)2-benzyl)} (disulfide 2-7, also called [D-Cys2, Cys7]TY027) [Tyr[DCysGlyPheNleProCys]TrpNHBn(CF3)2 (TY035)] , state its measured GTP binding hDOR Emax.
11

Report GTP binding hDOR Emax for Y[dA]GFMPLW-{OBzl(3,5-(CF3)2)} [TyrDAlaGlyPheMetProLeuTrpOBn(CF3)2 (TY005)]
47.6

src = patent US8026218
